Values compiled from patent US9040563B2.

# Test system: MiaPaca
# procedure-details: MTT proliferation/viability assay
# Assay type: cell-based, human
# experimental-conditions: pancreas
# Experimental: To determine if FGTI-2734 is more efficacious than FT or GGT-1 inhibitors, 10 human cancer pancreatic cell lines, 2 human breast cancer cell lines, 2 human lung cancer cell lines and one human prostate cancer cell line were treated with these inhibitors and determined their effects on the proliferation of these cells by MTT assay.
result-type: IC50 (nM)
Reply with just the number (in nM).

# return recorded IC50 for input `CSCC[C@H](NC(=O)c1ccc(CNCc2cnc[nH]2)cc1-c1ccccc1C)C(=O)O`
1200

* * *

# Tested on: HPNE-K-ras
# procedure-details: MTT proliferation/viability assay
# Type: cell-based, human
# experimental-conditions: pancreas
result-type: IC50

Specify the recorded IC50 for CSCC[C@H](NC(=O)c1ccc(CNCc2cnc[nH]2)cc1-c1ccccc1C)C(=O)O [FTI-2148] , system: HPNE-K-ras.
> 100 µM

* * *

# system: hFTase (Homo sapiens, UniProt P49354+P49356)
# procedure-details: In vitro hFTase inhibition: incorporation of [3H]FPP into recombinant H-Ras-CVLS
# Format: biochemical
# experimental-conditions: GGTase-I IC50 / hFTase IC50
# selectivity (ratio of GGTase-I to FTase IC50s) per entry
Could you keep your reply to the number by itself?

Hello, please tell me recorded selectivity (ratio of GGTase-I to FTase IC50s) for this one: `C=C(C)CN(CCN(Cc1cncn1C)c1ccc(C#N)cc1)S(=O)(=O)c1cn(C)cn1`
5.3

Provide one value: measured selectivity (ratio of GGTase-I to FTase IC50s) of `Cn1cnc(S(=O)(=O)N(CCN(Cc2cncn2C)c2ccc(Br)cc2)Cc2ccccc2)c1`
6.7

Give a short answer stating reported selectivity (ratio of GGTase-I to FTase IC50s) for `Cn1cnc(S(=O)(=O)N(CCN(Cc2cncn2C)c2ccc(C#N)cc2)Cc2ccco2)c1` .
15

* * *

# system: GGTase-I (Homo sapiens, UniProt P49354+P53609)
# procedure-details: In vitro GGTase-I inhibition: incorporation of [3H]GGPP into recombinant H-Ras-CVLL
# experimental-conditions: average of n = 3 unless stated, errors are standard deviations, read-out: GGTase-1 IC50
result-type: IC50 (µM)
Give the quantity in µM, number only.

Worked cases, IC50 given:
INSERT INTO assay_data (molecule, result_type, assay_value) VALUES
  ('Cn1cncc1CN(CCN(Cc1ccccc1)S(=O)(=O)C1CC1)c1ccc(C#N)cc1', 'IC50', 5.5),
  ('Cn1cnc(S(=O)(=O)N(CCN(Cc2cnc[nH]2)c2ccc(Br)cc2)Cc2ccccc2)c1', 'IC50', 4.4),
  ('Cn1cnc(S(=O)(=O)N(CCN(Cc2cncn2C)c2ccc(Br)cc2)Cc2ccccc2)c1', 'IC50', 0.53),
  ('CCCS(=O)(=O)N(CCN(Cc1cncn1C)c1ccc(C#N)cc1)Cc1ccccc1', 'IC50', 4.1);

Here is the next item to consider.
Fill in IC50 for record Cn1cncc1CN(CCN(CC1CCCCC1)S(=O)(=O)c1ccccn1)c1ccc(C#N)cc1F [21b]
0.52

* * *

# Test system: geranylgeranylation of Rap1A
# procedure-details: Whole cell inhibition of Rap1A processing (geranylgeranylation), immunoblot, oncogenic H-Ras-transformed NIH3T3 cells
# Type: cell-based, mouse
# experimental-conditions: Mus musculus; whole cells, oncogenic H-Ras-transformed NIH3T3; n = 3 unless stated; read-out: Rap1A processing IC50
pIC50: −log10 of the molar value.
// values below are reported pIC50

Reference set (5 entries):
INSERT INTO assay_data (compound, system, assay_value) VALUES
  ('Cn1cncc1CN(CCN(CC1CCCCC1)S(=O)(=O)c1ccccn1)c1ccc(C#N)cc1 [21a]', 'geranylgeranylation of Rap1A', 5.21),
  ('Cn1cncc1CN(CCN(Cc1ccccc1)S(=O)(=O)c1cccc2cccnc12)c1ccc(C#N)cc1', 'geranylgeranylation of Rap1A', '< 5.00'),
  ('Cn1cncc1CN(CCN(Cc1ccccc1)S(=O)(=O)c1cccs1)c1ccc(C#N)cc1', 'geranylgeranylation of Rap1A', '< 5.00'),
  ('Cn1cnc(S(=O)(=O)N(CCN(Cc2cncn2C)c2ccc(C#N)cc2)Cc2ccncc2)c1', 'geranylgeranylation of Rap1A', '< 5.00'),
  ('C=CCN(CCN(Cc1cncn1C)c1ccc(C#N)cc1)S(=O)(=O)c1cn(C)cn1', 'geranylgeranylation of Rap1A', '< 5.00');

Provide pIC50, system geranylgeranylation of Rap1A, entry `Cn1cnc(S(=O)(=O)N(CCN(Cc2cncn2C)c2ccc(C#N)cc2)Cc2cccc(C#N)c2)c1`
< 5.00
